For each of the compounds below, state its melting point.

Each compound below has a recorded value; state its melting point.
1. O=c1oc2cc(N3CCCNCC3)ccc2cc1-c1cn2cccc(Cl)c2n1 [Compound 212]
2. Cc1cn2cc(-c3cc4ccc(OCCNCC(C)O)cc4oc3=O)nc2c(C)n1 (centres unmarked) [Compound 961]
3. O=c1oc2cc(N3CCNCC3)ccc2cc1-c1cccnc1 [Compound 12]
4. Cc1cnc2nc(-c3cc4ccc(N5C[C@@H](C)N[C@@H](C)C5)cc4oc3=O)cn2c1 [Compound 243]
5. CCN(CC)C1CN(c2ccc3cc(-c4cn5cc(C)nc(C)c5n4)c(=O)oc3c2)C1 [Compound 944]
6. Cc1ccn2nc(-c3cc4ccc(N5CCNCC5)cc4oc3=O)cc2c1 [Compound 302]
7. O=c1oc2cc(N3CCCNCC3)cc(F)c2cc1-c1nc2c(F)cccc2o1 [Compound 368]
8. CCN(C)CCOc1ccc2cc(-c3cn4cc(C)nc(C)c4n3)c(=O)oc2c1 [Compound 937]

Marked response:
1: 170 to 173 °C; 2: 185 to 188 °C; 3: 170 to 172 °C; 4: 308 to 310 °C; 5: 218 to 220 °C; 6: 228 to 231 °C; 7: 240 to 245 °C; 8: 190 to 196 °C

====

Please provide measured melting point for the entries that follow.

C[C@H]1CN(c2ccc3cc(-c4ccc(F)c(Cl)c4)c(=O)oc3c2)CCN1 143 to 145 °C
Cc1cccn2cc(-c3cc4ccc(N5CCN(C)CC5)cc4oc3=O)nc12 224 to 226 °C
Cc1ccc2cc(-c3cc4ccc(N5C[C@@H](C)N[C@@H](C)C5)cc4oc3=O)cn2n1 105 to 108 °C

Continue with the compound presented below.
Exam item: Which melting point value belongs to `C[C@@H]1CN(c2ccc3cc(-c4nc(C(F)(F)F)cs4)c(=O)oc3c2)C[C@H](C)N1` ?
Marked response: 215 to 219 °C

====

Can you tell me melting point for the items I'm about to list?

compound	melting point
O=c1oc2cc(N3CCN(CCO)CC3)ccc2cc1-c1cn2cc(Cl)cnc2n1 [Compound 347]	288 to 296 °C

Count: 3. Required value per item: melting point.
1. Cc1cn2cc(-c3cc4ccc(CCN5CCNCC5)cc4oc3=O)nc2c(C)n1 [Compound 866]
2. Cc1ccn2cc(-c3cc4ccc(N5CCN6CCC[C@H]6C5)cc4oc3=O)nc2c1 [Compound 534]
3. C[C@@H]1CN(c2ccc3cc(-c4cn5cccc(Cl)c5n4)c(=O)oc3c2)CCN1C [Compound 296]

Marked response:
1: 186 to 188 °C; 2: 258 to 265 °C; 3: 199 to 202 °C

Dear colleague, could you please provide melting point for the compounds listed below?
1. O=c1oc2cc(N3CCN4CCCCC4C3)ccc2cc1-c1cn2cccc(F)c2n1 (centres unmarked) [Compound 578]
2. O=c1oc2cc(N3CCNCC3)ccc2cc1-c1cn2cccc(C(F)(F)F)c2n1 [Compound 209]
3. O=c1oc2cc(N3CCNCC3)ccc2cc1-c1cc2ncccn2c1 [Cpd 579]

Marked response:
1. 230 to 233 °C
2. 249 to 252 °C
3. 235 to 238 °C

Exam item: Requested read-out: melting point. Entry: CCN1C[C@@H]2C[C@H]1CN2c1ccc2cc(-c3cn4cc(C)nc(C)c4n3)c(=O)oc2c1 [Compound 793]
Marked response: 133 to 135 °C
